Please provide measured protein stability index for the entries that follow.
- test_name: protein stability index of a GFP-peptide fusion (yeast GPS) (PSI 1-4); higher = more stable; sorted into four equal gates, so the index is relative within each strain
- run_conditions: ubr1∆
# respond with the number and nothing more

query: Name the recorded protein stability index for ITVVLGVNGYIWLRKTS [RRP4] .
result: 1.95

query: Name the recorded protein stability index for DRIIHTWRTQLAASEIG [ECM29] .
result: 1.83

query: Name the recorded protein stability index for GLMKSYKIPKVMKDIYK [ESC2] .
result: 2.92

query: Name the recorded protein stability index for SKICLSHFSLDQFITSL [ITC1] .
result: 2.69

query: Name the recorded protein stability index for ESWANQLTVCGAIIGWT [FAS2] .
result: 1.44

query: Name the recorded protein stability index for ALKKSRSKGKQNRPYNH [RPC17] .
result: 2.42

query: Name the recorded protein stability index for QANIQLYSIREDYELSP [PRE1] .
result: 3.46

query: Name the recorded protein stability index for HKNERRVLEIQTSLVRM [SKI6] .
result: 2.96

query: Name the recorded protein stability index for LGNHAITIDSVVDANGC [YMR129W/POM152] .
result: 2.79

query: Name the recorded protein stability index for NKNGNAVCSTATVVSTN [PGD1] .
result: 2.81

query: Name the recorded protein stability index for RSEFIESLLNWINRSDG [YJR042W/NUP85] .
result: 3.22

query: Name the recorded protein stability index for MAKRVADAQIQRETYDS [YLR335W/NUP2] .
result: 2.21

query: Name the recorded protein stability index for NIFKAEMDSVSKSMKFS [CSN9] .
result: 2.85

query: Name the recorded protein stability index for SLSEFARRRQPTDQNNQ [SNF2] .
result: 2.87

query: Name the recorded protein stability index for DIIWLQRDLGLYVVGLF [RRP6] .
result: 2.29

query: Name the recorded protein stability index for TPAAATSPIDIREKVAK [SNF2] .
result: 3.01

query: Name the recorded protein stability index for LDGKFSLFHTAVSVANG [RPN2] .
result: 2.37

query: Name the recorded protein stability index for LESISHAGTAIGIMASD [PRE9] .
result: 1.5

query: Name the recorded protein stability index for ELMRIISRNGDTSYKID [SMC1] .
result: 2.95

query: Name the recorded protein stability index for LTYKSELSKSRALQENG [YMR153W/NUP53] .
result: 1.87

query: Name the recorded protein stability index for TRYNRDYMLSMANIPER [SNU114] .
result: 1.43

query: Name the recorded protein stability index for LISKPAKKNNFIEDLAP [UBP6] .
result: 2.7

query: Name the recorded protein stability index for MSSNTSSVMSSPRVEKR [YOR098C/NUP1] .
result: 3.01

query: Name the recorded protein stability index for PVRALIVQAKEPNLAAQ [ECM29] .
result: 2.64

query: Name the recorded protein stability index for ELNVKHVKQCQETCDKL [SMC2] .
result: 3.31

query: Name the recorded protein stability index for IGDTIADGPTMREITET [RPO21] .
result: 3.39

query: Name the recorded protein stability index for IGVIAGGGRVDKPLLKA [RPL2A] .
result: 2.98

query: Name the recorded protein stability index for VSHHATTFTHCEIHPSM [RPB2] .
result: 2.96

query: Name the recorded protein stability index for ESSYTEVTKLLKNEGID [SMC4] .
result: 3.49

query: Name the recorded protein stability index for DVYNRELDEHTTQIDLF [BRR2] .
result: 2.41

query: Name the recorded protein stability index for QDNKKIYVHVRRSTPFS [ESC2] .
result: 2.64

query: Name the recorded protein stability index for ADGQTLFAGYTDNVIRV [ASC1] .
result: 2.35

query: Name the recorded protein stability index for DDQLKQRRQNIRDLEKL [RPT4] .
result: 3.15

query: Name the recorded protein stability index for DVCKTRFNHLVTRLFFI [YML031W/NDC1] .
result: 1.77

query: Name the recorded protein stability index for ICLMTLIETVFVKNIRM [RPN9] .
result: 1.35

query: Name the recorded protein stability index for ATAFNKTRGPFHFRAPS [RPL16A] .
result: 2.71

query: Name the recorded protein stability index for CWLSNIDIQTQDLNQRF [RRI1] .
result: 3.17

query: Name the recorded protein stability index for SQTQLENANAANNGAAF [MED2] .
result: 1.74

query: Name the recorded protein stability index for EPKQKANAVQNNNGNSA [SRP21] .
result: 3.24

query: Name the recorded protein stability index for RFTPGSFTNYITRSFKE [RPS0A] .
result: 3.07

query: Name the recorded protein stability index for RVLITQRHIAVGKQIVN [RPS9A] .
result: 2.59

query: Name the recorded protein stability index for GAHGYSGFYTFSLLDHH [PRE1] .
result: 2.76

query: Name the recorded protein stability index for MGKRVDFSARTVISGDP [RPO21] .
result: 3.1

query: Name the recorded protein stability index for EWHSSLTLKEAELLVLK [PUP2] .
result: 1.63

query: Name the recorded protein stability index for RMSSEEVNSLLLQVNKT [GRR1] .
result: 2.78

query: Name the recorded protein stability index for RNFSLAIIDKNTGLTFK [PRE4] .
result: 3.18

query: Name the recorded protein stability index for IYEKLKNYLKNYILNFK [CDC53] .
result: 1.14

query: Name the recorded protein stability index for NRYAYVLSSLMFANMKV [LRP1] .
result: 3.01

query: Name the recorded protein stability index for ISVTRQVVLGGTSKYLI [SMC2] .
result: 2.73

query: Name the recorded protein stability index for LVPQLGHVGSVQISNIP [PRP8] .
result: 2.72

query: Name the recorded protein stability index for VQLPILKIIYTGLCSFD [YJL039C/NUP192] .
result: 1.76

query: Name the recorded protein stability index for DTDNECVAAWGVCNHAF [HRT1] .
result: 3.15

query: Name the recorded protein stability index for PQMFLNQQAQARQQVAQ [GAL11] .
result: 1.7

query: Name the recorded protein stability index for MPNDNKTPNRSSTPKFT [SIR4] .
result: 3.09

query: Name the recorded protein stability index for NWAKFTATASLGVIHKG [RPN2] .
result: 2

query: Name the recorded protein stability index for YSKSFEQFKMVSMITDH [POP1] .
result: 1.95

query: Name the recorded protein stability index for NESLIPLINLALIDTEF [YML103C/NUP188] .
result: 2.1

query: Name the recorded protein stability index for VDFSKYNTNFNLLLREL [SRP72] .
result: 3.31

query: Name the recorded protein stability index for NNLSNQLETLTGSIRHR [CSE2] .
result: 3.13

query: Name the recorded protein stability index for LSHIVYFLVLSPYGNLQ [RPN5] .
result: 1.12
